Entry source: paper PMC11243058

# Test system: MiaPaCa-2
# Assay Procedure: Cell viability assay (MTS), MiaPaCa-2
# Type: cell-based, human
# Particulars: Homo sapiens, MIA PaCa-2, pancreatic cancer cells, 48 h, mean ± SD
Quick list: pIC50 per entry.
Units for pIC50: none; it is -log10 of a concentration expressed in mol/L.

Here's what some known entries look like.
{"columns": ["Molecule", "Assay Value"],
 "data": [
  ["Br.N=C(N)SCc1ccc(Cn2nc(Br)c3cc(C(F)(F)F)ccc32)cc1 [Compound 16]", 5.17],
  ["Br.N=C(N)SCc1ccc(Cn2cc3cc(C(F)(F)F)ccc3n2)cc1 [Compound 13]", 4.48],
  ["O=C(OCc1ccc(CN2C(=O)C(=O)c3cc(Br)cc(Br)c32)cc1)c1ccco1 [Compound 4]", 5.15]
]}

Query: Requested read-out pIC50, target or system MiaPaCa-2, entry Br.N=C(N)SCc1ccc(Cn2ncc3cccc(C(F)(F)F)c32)cc1 [Compound 14]
Response: 4.91

###

Quantity: melting point

{"columns": ["Chemical String", "Assay Value"],
 "data": [
  ["Br.C=CCNC(=N)SCc1ccc(CN2C(=O)C(=O)c3cc(Br)cc(Br)c32)cc1", "118 to 120 °C"],
  ["Br.N=C(N)SCc1ccc(Cn2ncc3cccc(C(F)(F)F)c32)cc1", "206 to 208 °C"],
  ["O=Cc1ccc(CN2C(=O)C(=O)c3cc(Br)cc(Br)c32)cc1", "205 to 207 °C"],
  ["O=C(OCc1ccc(CN2C(=O)C(=O)c3cc(Br)cc(Br)c32)cc1)c1ccco1", "132 to 134 °C"],
  ["Br.C=CCNC(=N)SCc1ccc(Cn2ncc3cc(C(F)(F)F)ccc32)cc1", "104 to 106 °C"]
]}

Query: Which melting point reading was recorded for the molecule "Br.N=C(N)SCc1ccc(Cn2cc3cccc(C(F)(F)F)c3n2)cc1" ?
Response: 195 to 197 °C

Query: Which melting point reading was recorded for the molecule "Br.N=C(N)SCc1ccc(Cn2cc3cc(C(F)(F)F)ccc3n2)cc1" ?
Response: 181 to 183 °C

Query: Which melting point reading was recorded for the molecule "Br.COc1ccc2c(c1)C(=O)C(=O)N2Cc1ccc(CSC(=N)N)cc1" ?
Response: 214 to 216 °C

Query: Which melting point reading was recorded for the molecule "CN(C)CCC(=O)c1ccc(Cn2nc(Br)c3cc(C(F)(F)F)ccc32)cc1.Cl" ?
Response: 171 to 173 °C

Query: Which melting point reading was recorded for the molecule "Br.N=C(N)SCc1ccc(Cn2nc(Br)c3cc(C(F)(F)F)ccc32)cc1" ?
Response: 213 to 215 °C

###

Quantity: melting point

{"columns": ["Compound", "melting point"],
 "data": [
  ["Br.N=C(N)SCc1ccc(Cn2nc(Br)c3cccc(C(F)(F)F)c32)cc1 [Compound 17]", "235 to 237 °C"],
  ["Br.C=CCNC(=N)SCc1ccc(Cn2cc3cc(C(F)(F)F)ccc3n2)cc1 [Compound 11]", "105 to 107 °C"]
]}

Query: Which melting point reading was recorded for the compound Br.COc1ccc2c(c1)c(Br)nn2Cc1ccc(CSC(=N)N)cc1 [Compound 18] ?
Response: 171 to 173 °C

Query: Which melting point reading was recorded for the compound Br.C=CCNC(=N)SCc1ccc(CN2C(=O)C(=O)c3cc(C(F)(F)F)ccc32)cc1 [Compound 7] ?
Response: 122 to 124 °C

###

Quick list: inhibition at 0.5 µM per entry.
# Target Desc: ALDH1A1 (Homo sapiens)
# Construct: purchased R&D systems
# Sequence (P00352 whole entry): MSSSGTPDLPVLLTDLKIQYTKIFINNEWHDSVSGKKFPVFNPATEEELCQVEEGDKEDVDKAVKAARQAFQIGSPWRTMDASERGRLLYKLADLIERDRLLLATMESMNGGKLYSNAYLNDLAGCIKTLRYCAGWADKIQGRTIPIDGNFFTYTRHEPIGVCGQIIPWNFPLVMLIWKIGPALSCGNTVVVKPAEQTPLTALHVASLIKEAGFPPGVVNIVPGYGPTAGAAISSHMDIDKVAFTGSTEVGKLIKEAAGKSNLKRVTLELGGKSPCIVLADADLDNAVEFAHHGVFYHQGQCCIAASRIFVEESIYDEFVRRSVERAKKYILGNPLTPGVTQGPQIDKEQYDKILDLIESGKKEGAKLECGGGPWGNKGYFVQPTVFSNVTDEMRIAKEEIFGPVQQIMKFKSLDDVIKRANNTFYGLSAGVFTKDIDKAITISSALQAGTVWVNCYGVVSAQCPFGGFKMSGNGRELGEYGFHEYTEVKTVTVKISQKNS
# Assay Procedure: ALDH isoform-specific enzyme inhibition assay, ALDH1A1
# Assay type: biochemical
# Particulars: 500 nM, Acetaldehyde (Substrate)
The reply should contain only the number, in %.

Here's what some known entries look like.
{"columns": ["Chemical String", "Display Unit", "Assay Value"],
 "data": [
  ["Br.N=C(N)SCc1ccc(Cn2nc(Br)c3cccc(C(F)(F)F)c32)cc1", "%", 11],
  ["O=C(OCc1ccc(CN2C(=O)C(=O)c3cc(Br)cc(Br)c32)cc1)c1ccc([N+](=O)[O-])o1", "%", 51.3],
  ["O=Cc1ccc(CN2C(=O)C(=O)c3cc(Br)cc(Br)c32)cc1", "%", 24.8],
  ["O=C(OCc1ccc(CN2C(=O)C(=O)c3cc(Br)cc(Br)c32)cc1)c1ccco1", "%", 28.3],
  ["Br.C=CCNC(=N)SCc1ccc(CN2C(=O)C(=O)c3cc(Br)cc(Br)c32)cc1", "%", 35.4]
]}

Now consider a different compound.
Query: Which inhibition at 0.5 µM reading was recorded for the compound "Br.N=C(N)SCc1ccc(Cn2nc(Br)c3cc(C(F)(F)F)ccc32)cc1" ?
Response: 9.46

###

# Assay Procedure: Cell viability assay (MTS), statements over the cell line panel
# Format: cell-based, human
# Particulars: human; range or statement over all tested cell lines, 48 h MTS; read-out: IC50 / cytotoxicity against the tested cell lines
Quick list: IC50 at 48 h per entry.

{"columns": ["Chemical String", "IC50 at 48 h"],
 "data": [
  ["O=C(OCc1ccc(CN2C(=O)C(=O)c3cc(Br)cc(Br)c32)cc1)c1ccc([N+](=O)[O-])o1", "2.1 to 6.8 µM"],
  ["Br.N=C(N)SCc1ccc(Cn2nc(Br)c3cc(C(F)(F)F)ccc32)cc1", "2.1 to 6.8 µM"],
  ["Br.C=CCNC(=N)SCc1ccc(CN2C(=O)C(=O)c3cc(Br)cc(Br)c32)cc1", "2.1 to 6.8 µM"]
]}

Now consider a different compound.
Query: Which IC50 at 48 h reading was recorded for the compound "COC(=O)/C=C/c1ccc(CN2C(=O)C(=O)c3cc(Br)cc(Br)c32)cc1" ?
Response: > 20 µM

###

# Tested on: MiaPaCa-2
# Assay Procedure: Cell viability assay (MTS), MiaPaCa-2
# Assay type: cell-based, human
# Particulars: Homo sapiens, MIA PaCa-2, pancreatic cancer cells, 48 h, mean ± SD
Quick list: log10 IC50 per entry.
A value of 2 here means IC50 of 100 in µM, since values are log10.

Here's what some known entries look like.
{"columns": ["Chemical String", "log10 IC50"],
 "data": [
  ["O=Cc1ccc(CN2C(=O)C(=O)c3cc(Br)cc(Br)c32)cc1", 0.73],
  ["Br.COc1ccc2c(c1)c(Br)nn2Cc1ccc(CSC(=N)N)cc1", 1.65],
  ["Br.C=CCNC(=N)SCc1ccc(CN2C(=O)C(=O)c3cc(Br)cc(Br)c32)cc1", 0.38],
  ["Br.C=CCNC(=N)SCc1ccc(CN2C(=O)C(=O)c3cc(C(F)(F)F)ccc32)cc1", 1.01]
]}

Now consider a different compound.
Query: Requested read-out log10 IC50, target or system MiaPaCa-2, entry "O=C(OCc1ccc(CN2C(=O)C(=O)c3cc(Br)cc(Br)c32)cc1)c1ccc([N+](=O)[O-])o1"
Response: 0.58

###

# System: MiaPaCa-2
# Assay Procedure: Cell viability assay (MTS), MiaPaCa-2
# Type: cell-based, human
# Particulars: Homo sapiens, MIA PaCa-2, pancreatic cancer cells, 48 h, mean ± SD
pIC50: −log10 of the molar value.
Quantity: pIC50

Here's what some known entries look like.
{"columns": ["Chemical String", "Assay Value"],
 "data": [
  ["Br.C=CCNC(=N)SCc1ccc(Cn2cc3cc(C(F)(F)F)ccc3n2)cc1", "< 4.30"],
  ["O=Cc1ccc(Cn2nc(Br)c3cc(C(F)(F)F)ccc32)cc1", "< 4.30"],
  ["COC(=O)/C=C/c1ccc(Cn2cc3cc(C(F)(F)F)ccc3n2)cc1", "< 4.30"],
  ["Br.N=C(N)SCc1ccc(Cn2nc(Br)c3cccc(C(F)(F)F)c32)cc1", "< 4.30"]
]}

Now consider a different compound.
Query: Which pIC50 reading was recorded for the compound "OCc1ccc(Cn2nc(Br)c3cc(C(F)(F)F)ccc32)cc1" ?
Response: < 4.30

###

Quick list: IC50 per entry.
# Tested on: MiaPaCa-2
# Assay Procedure: Cell viability assay (MTS), MiaPaCa-2
# Assay type: cell-based, human
# Particulars: Homo sapiens, MIA PaCa-2, pancreatic cancer cells, 48 h, mean ± SD

Query: Which IC50 reading was recorded for the compound "Br.COc1ccc2c(c1)C(=O)C(=O)N2Cc1ccc(CSC(=N)N)cc1" ?
Response: > 50 µM

Query: Which IC50 reading was recorded for the compound "Br.N=C(N)SCc1ccc(Cn2cc3cccc(C(F)(F)F)c3n2)cc1" ?
Response: > 50 µM

Query: Which IC50 reading was recorded for the compound "COC(=O)/C=C/c1ccc(Cn2ncc3cc(C(F)(F)F)ccc32)cc1" ?
Response: > 50 µM
